Target: YES1 kinase (Homo sapiens, UniProt P07947)
Sequence (P07947 whole entry): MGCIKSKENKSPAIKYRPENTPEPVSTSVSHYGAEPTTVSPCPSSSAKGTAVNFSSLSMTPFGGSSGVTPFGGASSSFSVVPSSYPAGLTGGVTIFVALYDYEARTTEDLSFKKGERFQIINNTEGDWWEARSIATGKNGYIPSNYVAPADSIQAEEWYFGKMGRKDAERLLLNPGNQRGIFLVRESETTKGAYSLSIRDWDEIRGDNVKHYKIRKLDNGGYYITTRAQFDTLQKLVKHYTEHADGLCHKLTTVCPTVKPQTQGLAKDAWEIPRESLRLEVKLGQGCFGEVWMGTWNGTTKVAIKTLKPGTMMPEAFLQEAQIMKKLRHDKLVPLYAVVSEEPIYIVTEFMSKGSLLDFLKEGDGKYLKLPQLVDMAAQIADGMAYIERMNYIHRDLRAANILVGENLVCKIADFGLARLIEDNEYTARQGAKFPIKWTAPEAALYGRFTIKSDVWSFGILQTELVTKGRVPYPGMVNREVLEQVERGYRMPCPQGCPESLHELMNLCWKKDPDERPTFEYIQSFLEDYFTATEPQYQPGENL
Experiment: YES1 kinase inhibition, ADP Glo assay (Promega)
Type: biochemical
Settings: compound 10 nM; read-out: YES1 enzyme, % inhibition, 10 nM
measurement-name: inhibition at 0.01 µM (%)
Write the number in % without appending the unit.

As a guide, the following entries are already answered.
>  <compound>
COc1cc(-c2cc(N3CCC4(CC3)CNC4=O)n3ncnc(N)c23)ccc1NC(=O)OC(C)(C)C

>  <assay-target>
YES1 kinase (Homo sapiens, UniProt P07947)

>  <measurement-name>
inhibition at 0.01 µM

>  <unit-of-measure>
%

>  <test-result>
40

$$$$
>  <compound>
COc1cc(-c2cc(N3CCC4(CC3)CNC(=O)C4)n3ncnc(N)c23)ccc1NC(=O)OC(C)(C)C

>  <assay-target>
YES1 kinase (Homo sapiens, UniProt P07947)

>  <measurement-name>
inhibition at 0.01 µM

>  <unit-of-measure>
%

>  <test-result>
60

$$$$
>  <compound>
COc1cc(-c2cc(N[C@H]3CC[C@H](N)C3)n3ncnc(N)c23)ccc1NC(=O)OC(C)(C)C

>  <assay-target>
YES1 kinase (Homo sapiens, UniProt P07947)

>  <measurement-name>
inhibition at 0.01 µM

>  <unit-of-measure>
%

>  <test-result>
63

$$$$

Task: // fetch YES1 kinase (Homo sapiens, UniProt P07947) inhibition at 0.01 µM for COc1cc(-c2cc(N3CCC(CC(=O)O)CC3)n3ncnc(N)c23)ccc1NC(=O)OC(C)(C)C
Result: 40

Task: // fetch YES1 kinase (Homo sapiens, UniProt P07947) inhibition at 0.01 µM for COc1cc(-c2cc(N3CC[C@@H](N(C)C)[C@@H](F)C3)n3ncnc(N)c23)ccc1NC(=O)OC(C)(C)C
Result: 73

Task: // fetch YES1 kinase (Homo sapiens, UniProt P07947) inhibition at 0.01 µM for COc1cc(-c2cc(N3CCC(N)(C(F)(F)F)CC3)n3ncnc(N)c23)ccc1NC(=O)OC(C)(C)C
Result: 24
